tested on: Vero E6; assay: cell viability relative to DMSO; higher = less toxic; conditions: 72 h; 100 nM
Provide the reported cell viability of each item.
Field format: number, assumed %, no unit text.

For the compound shown here, c1ccc(CCNc2nc(-c3ccccc3)cs2)cc1 , give the reported cell viability.
101

For the compound shown here, CC(=O)N[C@@H](C=O)[C@@H](O)[C@H](O)[C@H](O)CO , give the reported cell viability.
104

For the compound shown here, Nc1nc(NC[C@H]2CC[C@H](CNS(=O)(=O)c3cccc4ccccc34)CC2)nc2ccccc12 , give the reported cell viability.
99.9

For the compound shown here, Cc1cc(C)cc(C(=O)N(C)[C@H](Cc2ccc(-c3ccccc3)cc2)C(=O)N[C@@H](Cc2c[nH]c3ccccc23)C(=O)O)c1 , give the reported cell viability.
90.1

----------
tested on: HepG2; test: cell viability relative to DMSO; higher = less toxic; details: 72 h; 100 nM
Where a name gives a salt, the structure may show the parent alone.
Provide the reported cell viability of each item.
Field format: number, assumed %, no unit text.

Request body: readout cell viability, system HepG2, query CC(C)c1nnc(-c2ccc(-c3ccccc3)nc2)n1-c1cccc2nonc12 . Return the value.
107

Request body: readout cell viability, system HepG2, query CC(=O)c1cc([N+](=O)[O-])c(Sc2cccc(Cl)c2Cl)s1 . Return the value.
93.3

Request body: readout cell viability, system HepG2, query CC(=O)C(=Cc1cc(O)c(O)c([N+](=O)[O-])c1)C(C)=O . Return the value.
96.5

Request body: readout cell viability, system HepG2, query CN(CC[C@@H](Oc1ccc(-c2ccccc2)cc1)c1ccc(F)cc1)CC(=O)O . Return the value.
92.7

Request body: readout cell viability, system HepG2, query CCCCOc1cc(C(=O)OCCN(CC)CC)ccc1N . Return the value.
95.7

Request body: readout cell viability, system HepG2, query Cc1cccn2c(=O)c(-c3nnn[nH]3)cnc12 . Return the value.
101

Request body: readout cell viability, system HepG2, query CC[C@H](Nc1ncnc2[nH]cnc12)c1nc2cccc(F)c2c(=O)n1-c1ccccc1 . Return the value.
108

Request body: readout cell viability, system HepG2, query CNCCc1cnc[nH]1 [N-alpha-methylhistamine-dihydrochloride] . Return the value.
103

Request body: readout cell viability, system HepG2, query c1ccc2c(c1)CCCC2C1=NCCN1 (centres undefined) [tetrahydrozoline] . Return the value.
91.2

----------
test system: Caco-2; assay: cell viability relative to DMSO; higher = less toxic; details: 72 h; 100 nM
Provide the reported cell viability of each item.
Field format: number, assumed %, no unit text.

For the molecule shown here, CCCCN1CCC(CNC(=O)c2c3n(c4ccccc24)CCCO3)CC1 [piboserod] , give the reported cell viability.
96.9

For the molecule shown here, COc1ccc(-n2c(SCCCN3C(=O)c4cccc5cccc(c45)C3=O)nnc2-c2ccncc2)cc1 [WIKI4] , give the reported cell viability.
96

For the molecule shown here, Cn1ccnc1S [methimazole] , give the reported cell viability.
99.7

For the molecule shown here, O=[N+]([O-])O[C@H]1CO[C@H]2[C@@H]1OC[C@H]2O[N+](=O)[O-] [isosorbide-dinitrate] , give the reported cell viability.
102

For the molecule shown here, O=C(N[C@H]1CN2CCC1CC2)c1cc2cccc(Cl)c2s1 [EVP-6124] , give the reported cell viability.
98.2

For the molecule shown here, CC(C)(C)c1cc(O)c(C(C)(C)C)cc1O [BHQ] , give the reported cell viability.
102

For the molecule shown here, CCOC(=O)[C@H](Cc1ccccc1)NC(=O)c1cc(Cl)c(OCCN2CCN(C)CC2)c(Cl)c1O [JTE-607] , give the reported cell viability.
99.8

For the molecule shown here, CCCCCCCCCCCCCCOC(=O)c1cccnc1 [myristyl-nicotinate] , give the reported cell viability.
97.7

For the molecule shown here, Cc1cccc(-c2[nH]c(C(C)(C)C)nc2-c2ccc3c(c2)OCO3)n1 , give the reported cell viability.
98.3

For the molecule shown here, O=C(NC(=O)c1c(F)cccc1Cl)NC1c2ccccc2-c2ccccc21 [TMN-355] , give the reported cell viability.
86.8

----------
test system: Caco-2; assay: cell viability relative to DMSO; higher = less toxic; conditions: 72 h; 10000 nM
MEASURE NAME: cell viability (%)
Field format: number, assumed %, no unit text.

For the molecule shown here, C[C@@H](O[C@H]1OCCN(Cc2nn[nH]c2CN(C)C)[C@H]1c1ccc(F)cc1)c1cc(C(F)(F)F)cc(C(F)(F)F)c1 , give the reported cell viability.
70.7

For the molecule shown here, CC(C)[C@H](N)C(=O)OCCOCn1cnc2c(=O)nc(N)[nH]c21 , give the reported cell viability.
104

For the molecule shown here, CCc1cccc(N(C)C(=N)Nc2cccc3ccccc23)c1 , give the reported cell viability.
82

For the molecule shown here, COC(=O)Nc1nc2cc(Sc3ccccc3)ccc2[nH]1 , give the reported cell viability.
66.2

For the molecule shown here, CNCCn1c(=O)c2cc(OC)c(OC)cc2c2cnc3cc4c(cc3c21)OCO4 , give the reported cell viability.
9

For the molecule shown here, Cc1oc2nc3c(c(NC(=O)CN4CCCC4=O)c2c1C)CCCC3 , give the reported cell viability.
101

----------
tested on: Caco-2; assay: cell viability relative to DMSO; higher = less toxic; settings: 72 h; 10 nM
MEASURE NAME: cell viability (%)
Field format: number, assumed %, no unit text.

For the molecule shown here, O=C(N[C@H]1CN2CCC1CC2)c1cc2cccc(Cl)c2s1 [EVP-6124] , give the reported cell viability.
97.5

For the molecule shown here, O=[N+]([O-])O[C@H]1CO[C@H]2[C@@H]1OC[C@H]2O[N+](=O)[O-] [isosorbide-dinitrate] , give the reported cell viability.
95

For the molecule shown here, Cn1ccnc1S [methimazole] , give the reported cell viability.
84.3

For the molecule shown here, Ic1cc(-c2ccccc2)ncn1 [4-iodo-6-phenylpyrimidine] , give the reported cell viability.
101

For the molecule shown here, CC(=O)Nc1ccc(OCC(O)CNC(C)C)cc1 (centres undefined) [practolol] , give the reported cell viability.
93.5

For the molecule shown here, COc1cccc2cc(-c3nc([C@H]4CC[C@H](C(=O)O)CC4)n4ncnc(N)c34)[nH]c12 [OSI-027] , give the reported cell viability.
100

For the molecule shown here, COc1ccc(C2(O)CCC(N3CC[C@@H](NC(=O)CNC(=O)c4cccc(C(F)(F)F)c4)C3)CC2)cn1 (some centres undefined) , give the reported cell viability.
95.3

For the molecule shown here, CCCc1cc(C)[nH]c(=O)c1CNC(=O)c1cc(-c2ccc(N3CCN(C(C)C)CC3)nc2)cc2c1cnn2C(C)C [UNC1999] , give the reported cell viability.
103

For the molecule shown here, O=[N+]([O-])c1cnc(Sc2nnc(O)n2-c2ccc3c(c2)OCCO3)s1 [BI-78D3] , give the reported cell viability.
102

----------
Provide the reported cell viability of each item.
tested on: Vero E6; experiment: cell viability relative to DMSO; higher = less toxic; settings: 72 h; 1 nM
Field format: number, assumed %, no unit text.

For the compound shown here, COc1ccc(C(=O)NCc2ccc(OCCN(C)C)cc2)cc1OC [itopride] , give the reported cell viability.
99.9

For the compound shown here, CC(C)c1nnc(-c2ccc(-c3ccccc3)nc2)n1-c1cccc2nonc12 , give the reported cell viability.
98.8

For the compound shown here, CCCCN(CCCC)C(=O)CN1C[C@H](c2ccc3c(c2)OCO3)[C@@H](C(=O)O)[C@@H]1c1ccc(OC)cc1 , give the reported cell viability.
104

For the compound shown here, COc1ccc(Cl)cc1[C@]1(F)C(=O)Nc2cc(C(F)(F)F)ccc21 , give the reported cell viability.
97.7

For the compound shown here, O=S(=O)(O)c1ccc(O)cc1 , give the reported cell viability.
100

----------
Provide the reported relative viability EC50 of each item.
system: Vero E6; assay: relative viability EC50 (midpoint between 100% and the lowest measured viability); higher = less toxic; conditions: 72 h

For the compound shown here, CC(Cc1cccc(C(F)(F)F)c1)NCCOC(=O)c1ccccc1 (centres undefined) , give the reported relative viability EC50.
> 10 µM

For the compound shown here, COc1ccc(CCN(C)CCCN2CCc3cc(OC)c(OC)cc3CC2=O)cc1OC , give the reported relative viability EC50.
> 10 µM

For the compound shown here, CCc1cccc(N(C)C(=N)Nc2cccc3ccccc23)c1 , give the reported relative viability EC50.
> 10 µM

For the compound shown here, c1cnc2c([O][Ga]([O]c3cccc4cccnc34)[O]c3cccc4cccnc34)cccc2c1 [gallium-triquinolin-8-olate] , give the reported relative viability EC50.
> 10 µM

For the compound shown here, C/C(=N\NC(=S)N1CCC1)c1ccccn1 , give the reported relative viability EC50.
0.206 µM

For the compound shown here, Nc1nc(NC[C@H]2CC[C@H](CNS(=O)(=O)c3cccc4ccccc34)CC2)nc2ccccc12 , give the reported relative viability EC50.
2.44 µM

For the compound shown here, COc1ccc2[nH]cc(C3=CCNCC3)c2c1 , give the reported relative viability EC50.
> 10 µM

For the compound shown here, C[C@@H]1C(=O)O[C@H]2C[C@@]34[C@H]5C[C@@H](C(C)(C)C)[C@]36[C@@H](OC(=O)[C@@H]6O)O[C@@]4(C(=O)O5)[C@]21O [Ginkgolide A] , give the reported relative viability EC50.
> 10 µM

For the compound shown here, O=C(NC(=O)c1c(F)cccc1Cl)NC1c2ccccc2-c2ccccc21 , give the reported relative viability EC50.
> 10 µM
